- experimentalSystem: Adenosine receptor A1 (Homo sapiens); note: in other assays of this panel Not Active means under 50% inhibition at 10 µM;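 note: radioligand binding assay at the adenosine A1 receptor, with DPCPX serving as the labelled ligand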
- Sequence (P30542 whole entry): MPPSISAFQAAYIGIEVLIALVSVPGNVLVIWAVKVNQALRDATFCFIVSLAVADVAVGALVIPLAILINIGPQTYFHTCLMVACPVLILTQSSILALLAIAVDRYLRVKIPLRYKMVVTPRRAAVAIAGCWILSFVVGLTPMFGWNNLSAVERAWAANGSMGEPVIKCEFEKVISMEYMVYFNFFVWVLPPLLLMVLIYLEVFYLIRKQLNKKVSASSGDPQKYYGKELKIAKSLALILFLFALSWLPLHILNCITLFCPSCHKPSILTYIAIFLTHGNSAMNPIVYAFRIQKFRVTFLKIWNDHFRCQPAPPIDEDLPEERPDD
- Format: cell membranes, CHO, Membrane
- conditionLabel: cho
propertyLabel: IC50

- CN1C(=O)CN=C(c2ccccc2)c2cc(Cl)ccc21: Not Active
- NC[C@H]1O[C@H](O[C@H]2[C@H](O)[C@@H](O[C@H]3O[C@H](CO)[C@@H](O)[C@H](N)[C@H]3O)[C@H](N)C[C@@H]2N)[C@H](O)[C@@H](O)[C@@H]1O: Not Active
- C=C1/C(=C\C=C2/CCC[C@]3(C)[C@@H]([C@H](C)CCCC(C)C)CC[C@@H]23)C[C@@H](O)C[C@@H]1O: Not Active
- CC(C(=O)O)c1ccc(CC2CCCC2=O)cc1 (configuration not stated): Not Active
- C[C@@H]1CC[C@H]2[C@@H](C)C(=O)O[C@@H]3O[C@@]4(C)CC[C@@H]1[C@]32OO4: Not Active
- CO[C@H]1C[C@@H]2CC[C@@H](C)[C@@](O)(O2)C(=O)C(=O)N2CCCC[C@H]2C(=O)O[C@H]([C@H](C)C[C@@H]2CC[C@@H](O)[C@H](OC)C2)CC(=O)[C@H](C)/C=C(\C)[C@@H](O)[C@@H](OC)C(=O)[C@H](C)C[C@H](C)/C=C/C=C/C=C/1C: Not Active
- CCCCC1C(=O)N(c2ccccc2)N(c2ccccc2)C1=O: Not Active

The reported numbers originate from ChEMBL document CHEMBL1909046.
